ASSAYED TARGET: CUL4A-DDB1-BPB interaction (Homo sapiens (Human))
Sequence (Q16531 403-706): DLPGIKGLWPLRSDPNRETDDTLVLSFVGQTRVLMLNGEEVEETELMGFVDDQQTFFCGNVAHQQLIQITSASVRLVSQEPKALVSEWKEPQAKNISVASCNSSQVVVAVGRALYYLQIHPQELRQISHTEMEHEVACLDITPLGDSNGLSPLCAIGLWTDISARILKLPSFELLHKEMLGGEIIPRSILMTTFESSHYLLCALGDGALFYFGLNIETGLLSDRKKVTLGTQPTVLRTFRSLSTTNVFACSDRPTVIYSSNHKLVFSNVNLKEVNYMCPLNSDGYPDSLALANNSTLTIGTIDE
METHOD SUMMARY: AlphaLISA in vitro binding assay, CUL4A and DDB1-BPB binding
CONDITION DETAILS: inhibition of CUL4A and DDB1-BPB binding
Task for the reader: assign each of the following compounds its reported pIC50.
# pIC50 is unitless: minus log10 of the molar concentration; print number only

Look up pIC50 with CUL4A-DDB1-BPB interaction (Homo sapiens (Human)) for this compound: COC(=O)c1cccc(-c2nc(C(=O)O)cc3c2[nH]c2ccccc23)c1
4.92

Hi! What's the reported pIC50 for CN(c1ccc(-c2nc(C(=O)O)cc3c2[nH]c2cc(Cl)ccc23)cc1)S(=O)(=O)c1ccccc1 on CUL4A-DDB1-BPB interaction (Homo sapiens (Human))?
5.95

Query for CUL4A-DDB1-BPB interaction (Homo sapiens (Human)): what pIC50 does the record show for O=C(O)c1cc2c([nH]c3cc(F)ccc32)c(-c2ccc(OCc3ccccc3)cc2)n1 ?
5.23

Observed pIC50 on CUL4A-DDB1-BPB interaction (Homo sapiens (Human)) for CS(=O)(=O)c1ccc(-c2nc(C(=O)O)nc3c2[nH]c2ccccc23)cc1 , please.
5.04

Record lookup: for CUL4A-DDB1-BPB interaction (Homo sapiens (Human)), what pIC50 belongs to Cc1ccc2[nH]c3c(-c4ccc(S(C)(=O)=O)cc4)nc(C(=O)O)cc3c2c1 ?
6.11

Query pIC50 on CUL4A-DDB1-BPB interaction (Homo sapiens (Human)) for Cc1ccc(-c2ccc(-c3nc(C(=O)O)cc4c3[nH]c3ccccc34)cc2)cc1
4.60

Lab request: please report pIC50 under test system CUL4A-DDB1-BPB interaction (Homo sapiens (Human)) for CN(c1ccc(-c2nc(C(=O)O)cc3c2[nH]c2cc(F)c(F)cc23)cc1)S(=O)(=O)c1ccccc1
6.90

Quick check: pIC50 on CUL4A-DDB1-BPB interaction (Homo sapiens (Human)), item O=C(O)c1cc2c([nH]c3ccccc32)c(-c2ccc(F)cc2)n1 ?
5.85

Lab note: need pIC50 for O=C(O)c1cc2c([nH]c3ccccc32)c(-c2ccc(-c3ccc(F)cc3)cc2)n1 on CUL4A-DDB1-BPB interaction (Homo sapiens (Human)), anyone have it?
5.26

CUL4A-DDB1-BPB interaction (Homo sapiens (Human)) / pIC50 / CN(c1ccc(-c2nc(C(=O)O)cc3c2[nH]c2cc(F)ccc23)c(F)c1)S(=O)(=O)c1ccccc1 : value?
6.12

What is its pIC50 for CUL4A-DDB1-BPB interaction (Homo sapiens (Human))? Entry: Cc1ccc(S(=O)(=O)N(C)c2ccc(-c3nc(C(=O)O)cc4c3[nH]c3ccc(F)cc34)cc2)cc1
6.52

What is its pIC50 for CUL4A-DDB1-BPB interaction (Homo sapiens (Human))? Entry: CS(=O)(=O)N(Cc1ccccc1)c1ccc(-c2nc(C(=O)O)cc3c2[nH]c2ccccc23)cc1
5.82

Request - read-out pIC50 | tested on CUL4A-DDB1-BPB interaction (Homo sapiens (Human)) | compound CN1CCN(c2ccc(S(=O)(=O)N(C)c3ccc(-c4nc(C(=O)O)cc5c4[nH]c4cc(F)ccc45)cc3)cc2)CC1 [PA1-13A-7]
6.42

# returns recorded pIC50 (system: CUL4A-DDB1-BPB interaction (Homo sapiens (Human))) for NS(=O)(=O)c1ccc(-c2nc(C(=O)O)cc3c2[nH]c2ccccc23)cc1
6.02
